B1: SH3 and PX domain-containing protein 2B, residues 155 to 209; numbered along this chain, A1X283 (parent)
chain: EQYVVVANYQKQESSEISLSVGQVVDIIEKNESGWWFVSTAEEQGWVPATCLEGQ

variants of: B1; test: abundance fitness (aPCA) (normalised: wild type 0, dead -1); higher = more abundant; growth selection in yeast, the domain comes from the species named; settings: Homo sapiens
Record 1.0 whenever abundance fitness is at -0.3 or higher; record 0.0 when lower.

| BIOPOLYMER_SEQUENCE | CLASS_NAME |
| --- | --- |
| EQYVVVANYQKQESSEISLSVGQVVDIIEKNESGWWFVSTAEEQGWVPATCLMGQ | 1.0 |
| EQYVVVANYQKQESSEISLSVGQVVDIIEWNESGWWFVSTAEEQGWVPATCLEGQ | 0.0 |
| EQYVVVANYQKQESSEISLSVGQVVDIIEKNESGWWFVSPAEEQGWVPATCLEGQ | 0.0 |
| EQYFVVANYQKQESSEISLSVGQVVDIIEKNESGWWFVSTAEEQGWVPATCLEGQ | 1.0 |
| EQYVVVANYQKQESSEISLSVGQVVDIIEKNESGWWFVSTKEEQGWVPATCLEGQ | 1.0 |
| EQSVVVANYQKQESSEISLSVGQVVDIIEKNESGWWFVSTAEEQGWVPATCLEGQ | 1.0 |
| EQYVVVANYQKQESSEISLSVGQVVDFIEKNESGWWFVSTAEEQGWVPATCLEGQ | 1.0 |
| EQYVVVANYQKQESSEISLSVGQVVDIIEKNESGWWFVSTAELQGWVPATCLEGQ | 1.0 |
| EQYVVVANYQKQESSEISLSVGQVVDIIEKNESGWWFVSHAEEQGWVPATCLEGQ | 1.0 |
| EQYVVVANYQKQNSSEISLSVGQVVDIIEKNESGWWFVSTAEEQGWVPATCLEGQ | 1.0 |
